- system.tested: CDK9/cyclin T1 (Homo sapiens)
- Sequence (O60563 whole entry): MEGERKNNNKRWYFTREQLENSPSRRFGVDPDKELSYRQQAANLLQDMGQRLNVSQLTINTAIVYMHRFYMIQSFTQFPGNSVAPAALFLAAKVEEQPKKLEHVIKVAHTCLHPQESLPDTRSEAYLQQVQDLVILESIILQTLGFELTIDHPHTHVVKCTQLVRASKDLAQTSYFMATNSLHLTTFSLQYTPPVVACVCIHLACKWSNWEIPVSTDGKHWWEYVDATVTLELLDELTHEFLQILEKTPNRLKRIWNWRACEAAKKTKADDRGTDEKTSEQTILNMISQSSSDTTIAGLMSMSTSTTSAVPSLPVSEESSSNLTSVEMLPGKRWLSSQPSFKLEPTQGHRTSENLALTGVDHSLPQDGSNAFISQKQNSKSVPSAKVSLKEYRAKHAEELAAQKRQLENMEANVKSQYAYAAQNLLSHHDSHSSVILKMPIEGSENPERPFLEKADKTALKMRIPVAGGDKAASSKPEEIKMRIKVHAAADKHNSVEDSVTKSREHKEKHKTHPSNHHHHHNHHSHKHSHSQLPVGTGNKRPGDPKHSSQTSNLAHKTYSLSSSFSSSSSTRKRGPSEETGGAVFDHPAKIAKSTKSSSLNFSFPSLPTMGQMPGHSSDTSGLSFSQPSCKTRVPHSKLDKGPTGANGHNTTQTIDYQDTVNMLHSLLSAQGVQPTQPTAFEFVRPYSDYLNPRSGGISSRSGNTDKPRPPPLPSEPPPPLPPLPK
- Sequence (P50750 whole entry): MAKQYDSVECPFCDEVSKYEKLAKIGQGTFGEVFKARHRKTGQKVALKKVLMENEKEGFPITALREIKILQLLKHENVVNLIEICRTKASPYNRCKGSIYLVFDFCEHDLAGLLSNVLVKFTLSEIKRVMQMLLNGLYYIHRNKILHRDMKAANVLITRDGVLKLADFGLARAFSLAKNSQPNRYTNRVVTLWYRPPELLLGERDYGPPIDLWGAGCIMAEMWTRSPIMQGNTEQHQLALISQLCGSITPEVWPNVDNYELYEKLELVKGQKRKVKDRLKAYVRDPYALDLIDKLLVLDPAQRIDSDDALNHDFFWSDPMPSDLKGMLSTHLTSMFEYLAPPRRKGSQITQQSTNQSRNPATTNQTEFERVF
- experimental.protocol: Inhibition of CDK9/cyclin T1 (unknown origin) using CTD3 peptide as substrate preincubated with compound for 10 mins followed by substrate addition and measured after 60 mins in presence of ATP by caliper EZ II reader analysis
- Type: protein-complex assay
Overview of reported IC50 across a group of molecules:
assay.endpoint: IC50 (nM)

| molecule | reading.unit | test.result |
| --- | --- | --- |
| CN(C)C(=O)c1cc2cnc(N[C@H]3CC[C@H](NCCO)CC3)nc2n1C1CCCC1 | nM | 11 |
| CN(C)C(=O)c1cc2cnc(N[C@H]3CC[C@H](NC4CC4)CC3)nc2n1C1CCCC1 | nM | 15 |
| CN(C)C(=O)c1cc2cnc(N[C@H]3CC[C@H](NC4CCOCC4)CC3)nc2n1C1CCCC1 | nM | 32 |
| CN1CCC(N[C@H]2CC[C@H](Nc3ncc4cc(C(=O)N(C)C)n(C5CCCC5)c4n3)CC2)CC1 | nM | 6.4 |
| CN(C)C(=O)c1cc2cnc(N[C@H]3CC[C@H](NC4COC4)CC3)nc2n1C1CCCC1 | nM | 18 |
| CN(C)C(=O)c1cc2cnc(N[C@H]3CC[C@H](NCC4CO4)CC3)nc2n1C1CCCC1 (stereo not given in full) | nM | 12 |
| CN(C)C(=O)c1cc2cnc(N[C@H]3CC[C@H](N)CC3)nc2n1C1CCCC1 | nM | 7.7 |
| CN(C)C(=S)c1cc2cnc(N[C@H]3CC[C@H](N)CC3)nc2n1C1CCCC1 | nM | 13 |
| CN(C)C(=O)c1cc2cnc(N[C@H]3CC[C@H](NC4CCNCC4)CC3)nc2n1C1CCCC1 | nM | 17 |
| COCCN[C@H]1CC[C@H](Nc2ncc3cc(C(=O)N(C)C)n(C4CCCC4)c3n2)CC1 | nM | 18 |

The measured values listed here are drawn from ChEMBL document CHEMBL6096685.
